- procedure.summary: Hygroscopy, dynamic vapour sorption (DVS) isotherms (Example 15)
- Format: physicochemical
- condition.label: 70% Relative humidity
reported.endpoint: Change in mass [%], Desorption (%)
Record the value in %, omitting the unit from your answer.

Use the examples below as a reference point.
O=C([O-])c1cc(NC(=O)C2(c3ccc(C(F)(F)F)cc3F)CC2)ccc1-c1cnn(C2CCC2)c1.[K+] [Potassium salt]: 4.31
O=C(O)c1cc(NC(=O)C2(c3ccc(C(F)(F)F)cc3F)CC2)ccc1-c1cnn(C2CCC2)c1 [free acid]: 0.05
N=C(N)NCCC[C@H](N)C(=O)O.O=C(O)c1cc(NC(=O)C2(c3ccc(C(F)(F)F)cc3F)CC2)ccc1-c1cnn(C2CCC2)c1 [Arginine Salt]: 6.12

Next up:
# Change in mass [%], Desorption lookup, item O=C([O-])c1cc(NC(=O)C2(c3ccc(C(F)(F)F)cc3F)CC2)ccc1-c1cnn(C2CCC2)c1.[Na+] [Sodium salt]
11.79

###

- procedure.summary: Determination of exposure in rat after intragastric administration (Example 13)
- Type: in vivo
- condition.label: free acid in rat plasma, dose equiv. 150 mg/kg
reported.endpoint: AUC(0-tlast)norm (kg·h/L)
Record the value in kg·h/L, omitting the unit from your answer.

# AUC(0-tlast)norm lookup, item O=C(O)c1cc(NC(=O)C2(c3ccc(C(F)(F)F)cc3F)CC2)ccc1-c1cnn(C2CCC2)c1 [free acid]
1.5

###

- procedure.summary: Hygroscopy, dynamic vapour sorption (DVS) isotherms (Example 15)
- Format: physicochemical
- condition.label: 60% Relative humidity
Reported values of Change in mass [%], Sorption for individual entries
Record the value in %, omitting the unit from your answer.

N=C(N)NCCC[C@H](N)C(=O)O.O=C(O)c1cc(NC(=O)C2(c3ccc(C(F)(F)F)cc3F)CC2)ccc1-c1cnn(C2CCC2)c1 [Arginine Salt]: 7.20
O=C([O-])c1cc(NC(=O)C2(c3ccc(C(F)(F)F)cc3F)CC2)ccc1-c1cnn(C2CCC2)c1.[K+] [Potassium salt]: 14.10

# Change in mass [%], Sorption lookup, item O=C(O)c1cc(NC(=O)C2(c3ccc(C(F)(F)F)cc3F)CC2)ccc1-c1cnn(C2CCC2)c1 [free acid]
0.20

Again, but for O=C([O-])c1cc(NC(=O)C2(c3ccc(C(F)(F)F)cc3F)CC2)ccc1-c1cnn(C2CCC2)c1.[Na+] [Sodium salt]
11.23

###

- procedure.summary: Hygroscopy, dynamic vapour sorption (DVS) isotherms (Example 15)
- Assay type: physicochemical
- condition.label: 60% Relative humidity
Reported values of Change in mass [%], Desorption for individual entries
Record the value in %, omitting the unit from your answer.

Use the examples below as a reference point.
O=C(O)c1cc(NC(=O)C2(c3ccc(C(F)(F)F)cc3F)CC2)ccc1-c1cnn(C2CCC2)c1 [free acid]: 0.09
N=C(N)NCCC[C@H](N)C(=O)O.O=C(O)c1cc(NC(=O)C2(c3ccc(C(F)(F)F)cc3F)CC2)ccc1-c1cnn(C2CCC2)c1 [Arginine Salt]: 9.10
O=C([O-])c1cc(NC(=O)C2(c3ccc(C(F)(F)F)cc3F)CC2)ccc1-c1cnn(C2CCC2)c1.[K+] [Potassium salt]: 6.66

Next up:
# Change in mass [%], Desorption lookup, item O=C([O-])c1cc(NC(=O)C2(c3ccc(C(F)(F)F)cc3F)CC2)ccc1-c1cnn(C2CCC2)c1.[Na+] [Sodium salt]
7.95

###

- procedure.summary: Solubility free acid vs. salt, shake-flask method (Example 12)
- Assay type: physicochemical
- condition.label: acetate buffer, 25 °C, pH 4.5, aqueous buffer, thermodynamic from solid, Acetate buffer pH 4.5, 25° C.; read-out: Solubility
reported.endpoint: solubility

# solubility lookup, item O=C(O)c1cc(NC(=O)C2(c3ccc(C(F)(F)F)cc3F)CC2)ccc1-c1cnn(C2CCC2)c1 [cholinate]
2 µg/mL

###

- procedure.summary: Hygroscopy, dynamic vapour sorption (DVS) isotherms (Example 15)
- Type: physicochemical
- condition.label: 95% Relative humidity
reported.endpoint: Change in mass [%], Sorption
Respond with a number, then the unit of measure.

O=C([O-])c1cc(NC(=O)C2(c3ccc(C(F)(F)F)cc3F)CC2)ccc1-c1cnn(C2CCC2)c1.[K+] [Potassium salt]: 67.05%

# Change in mass [%], Sorption lookup, item N=C(N)NCCC[C@H](N)C(=O)O.O=C(O)c1cc(NC(=O)C2(c3ccc(C(F)(F)F)cc3F)CC2)ccc1-c1cnn(C2CCC2)c1 [Arginine Salt]
31.74%

Again, but for O=C([O-])c1cc(NC(=O)C2(c3ccc(C(F)(F)F)cc3F)CC2)ccc1-c1cnn(C2CCC2)c1.[Na+] [Sodium salt]
42.62%

Again, but for O=C(O)c1cc(NC(=O)C2(c3ccc(C(F)(F)F)cc3F)CC2)ccc1-c1cnn(C2CCC2)c1 [free acid]
0.65%

###

- procedure.summary: Hygroscopy, dynamic vapour sorption (DVS) isotherms (Example 15)
- Format: physicochemical
- condition.label: 10% Relative humidity
reported.endpoint: Change in mass [%], Sorption (%)
Record the value in %, omitting the unit from your answer.

O=C([O-])c1cc(NC(=O)C2(c3ccc(C(F)(F)F)cc3F)CC2)ccc1-c1cnn(C2CCC2)c1.[Na+] [Sodium salt]: 0.85

# Change in mass [%], Sorption lookup, item N=C(N)NCCC[C@H](N)C(=O)O.O=C(O)c1cc(NC(=O)C2(c3ccc(C(F)(F)F)cc3F)CC2)ccc1-c1cnn(C2CCC2)c1 [Arginine Salt]
1.39

Again, but for O=C(O)c1cc(NC(=O)C2(c3ccc(C(F)(F)F)cc3F)CC2)ccc1-c1cnn(C2CCC2)c1 [free acid]
0.08

Again, but for O=C([O-])c1cc(NC(=O)C2(c3ccc(C(F)(F)F)cc3F)CC2)ccc1-c1cnn(C2CCC2)c1.[K+] [Potassium salt]
3.33

###

- procedure.summary: Determination of exposure in rat after intragastric administration (Example 13)
- Type: in vivo
- condition.label: female, rat, plasma, po, 30 mg/kg, free acid in rat plasma, dose equiv. 30 mg/kg, read-out: AUC(0-tlast)
reported.endpoint: AUC(0-t) (µg·h/mL)
Record the value in µg·h/mL, omitting the unit from your answer.

# AUC(0-t) lookup, item O=C(O)c1cc(NC(=O)C2(c3ccc(C(F)(F)F)cc3F)CC2)ccc1-c1cnn(C2CCC2)c1 [free acid]
149

###

- procedure.summary: Determination of exposure in rat after intragastric administration (Example 13)
- Type: in vivo
- condition.label: female, rat, plasma, po, 150 mg/kg, free acid in rat plasma, dose equiv. 150 mg/kg, read-out: AUC(0-tlast)
reported.endpoint: AUC(0-t) (µg·h/mL)
Record the value in µg·h/mL, omitting the unit from your answer.

# AUC(0-t) lookup, item O=C(O)c1cc(NC(=O)C2(c3ccc(C(F)(F)F)cc3F)CC2)ccc1-c1cnn(C2CCC2)c1 [free acid]
225

###

- procedure.summary: Hygroscopy, dynamic vapour sorption (DVS) isotherms (Example 15)
- Type: physicochemical
- condition.label: 80% Relative humidity
Reported values of Change in mass [%], Desorption for individual entries
Record the value in %, omitting the unit from your answer.

N=C(N)NCCC[C@H](N)C(=O)O.O=C(O)c1cc(NC(=O)C2(c3ccc(C(F)(F)F)cc3F)CC2)ccc1-c1cnn(C2CCC2)c1 [Arginine Salt]: 4.54
O=C(O)c1cc(NC(=O)C2(c3ccc(C(F)(F)F)cc3F)CC2)ccc1-c1cnn(C2CCC2)c1 [free acid]: 0.03
O=C([O-])c1cc(NC(=O)C2(c3ccc(C(F)(F)F)cc3F)CC2)ccc1-c1cnn(C2CCC2)c1.[Na+] [Sodium salt]: 16.87

Next up:
# Change in mass [%], Desorption lookup, item O=C([O-])c1cc(NC(=O)C2(c3ccc(C(F)(F)F)cc3F)CC2)ccc1-c1cnn(C2CCC2)c1.[K+] [Potassium salt]
2.92

###

- procedure.summary: Hygroscopy, dynamic vapour sorption (DVS) isotherms (Example 15)
- Format: physicochemical
- condition.label: 70% Relative humidity
reported.endpoint: Change in mass [%], Sorption (%)
Record the value in %, omitting the unit from your answer.

Use the examples below as a reference point.
N=C(N)NCCC[C@H](N)C(=O)O.O=C(O)c1cc(NC(=O)C2(c3ccc(C(F)(F)F)cc3F)CC2)ccc1-c1cnn(C2CCC2)c1 [Arginine Salt]: 9.40
O=C(O)c1cc(NC(=O)C2(c3ccc(C(F)(F)F)cc3F)CC2)ccc1-c1cnn(C2CCC2)c1 [free acid]: 0.23
O=C([O-])c1cc(NC(=O)C2(c3ccc(C(F)(F)F)cc3F)CC2)ccc1-c1cnn(C2CCC2)c1.[K+] [Potassium salt]: 17.79

# Change in mass [%], Sorption lookup, item O=C([O-])c1cc(NC(=O)C2(c3ccc(C(F)(F)F)cc3F)CC2)ccc1-c1cnn(C2CCC2)c1.[Na+] [Sodium salt]
15.05

###

- procedure.summary: Determination of exposure in rat after intragastric administration (Example 13)
- Format: in vivo
- condition.label: female, rat, plasma, po, 495 mg/kg, free acid in rat plasma, dose equiv. 495 mg/kg, read-out: AUC(0-tlast)
reported.endpoint: AUC(0-t) (µg·h/mL)
Record the value in µg·h/mL, omitting the unit from your answer.

# AUC(0-t) lookup, item O=C(O)c1cc(NC(=O)C2(c3ccc(C(F)(F)F)cc3F)CC2)ccc1-c1cnn(C2CCC2)c1 [cholinate]
1000

# credit: patent US20250282734A1
